measurementName: melting point

As a guide, the following entries are already answered.
c1ccc2oc(COc3ccc(CCCn4ccnc4)cc3)nc2c1 ... 81 to 82 °C
CN1N=C(c2ccccc2)C(C)(Cc2ccccc2)NC1=O (stereo unspecified) ... 174 to 175 °C
O=C(CCCc1ccc(-c2ccc(Cl)cc2)cc1)c1ccc(CN2CCCC2)cc1 ... 114 to 115 °C

What melting point value was documented for this compound, CCC(O)c1ccccc1-c1ccc(C(=O)N2Cc3ccc(C(=O)NCc4cccnc4)n3Cc3ccccc32)cc1 (stereo unspecified) ? 111 to 115 °C

----------
measurementName: melting point

Solved cases (5 shown):
CC1CCc2ccc(N)c3c(=O)c(C(=O)O)cn1c23 (stereo not given) ... 247 to 249 °C
CNC1Cc2ccccc2C1Nc1ccccc1 (stereo not given) ... 121 to 122 °C
CCCc1c(C(=O)C2CCCC2)c2ccc(C(N)=O)cc2n1Cc1cc2c(cc1Cl)OCO2 ... 236 to 237 °C
C[C@@H](c1ccc(F)cc1)N1CCN(c2cc(Oc3cc(F)cc4[nH]c(=O)c(N)nc34)ncn2)CC1 ... 288 °C
CCOC(=O)CC1CCc2[nH]c3ccccc3c2C1 (stereo not given) ... 122 to 123 °C

Request the reported melting point associated with `N#CC(=NNc1ccc(C2=NNC(=O)CC2)cc1)C(N)=C(C#N)C#N` > 300 °C

// next record OC(c1ccccn1)c1cc(F)ccc1F (stereo not given) 65 to 66 °C

Moving on to `O=C(O)C1(c2cn3nc(NCCCN4CCC(OC(c5ccccc5)c5ccccc5)CC4)ccc3n2)CC1` 115 to 117 °C

Same read-out for `N#Cc1ccc2c(c1)C(=O)c1ccccc1CC2` ? 104 to 106 °C

Do the same for `COc1cncc(-c2cc(=S)ss2)n1` please 149 °C

Subsequent entry: COc1cc2c(cc1Cl)C(Cl)Cc1ccccc1S2 (stereo not given) 130 to 132 °C

Continue with `Cc1ccc2c(Br)c(F)cc([N+](=O)[O-])c2n1` 135 to 137 °C

Try the compound `CC(C)(C)c1cc(Cn2nc(-c3ccccc3)oc2=O)cc(C(C)(C)C)c1O` 164 °C

Also check O=C1Nc2cc(-n3nnn(CCCF)c3=O)c(F)cc2CC1Cl (stereo not given) 114 to 118 °C

----------
measurementName: melting point

// solved cases for melting point follow
COc1ccc(Nc2nnc(Cc3ccncc3)c3ccccc23)cc1 ... 223 to 224 °C
CCOP(=O)(CN(Cc1ccncc1)C(=O)Cc1cc(C(C)(C)C)c(O)c(C(C)(C)C)c1)OCC ... 160 to 162 °C
COC(=O)c1cnc(S)n1C1CC(C)c2ccccc21 (stereo unspecified) ... 177 °C
O=C(COc1cc(-c2ccccc2)on1)NCCO[N+](=O)[O-] ... 113 to 114 °C
CP(C)(=O)C(CC(=O)O)C(=O)O (stereo unspecified) ... 174 to 177 °C
Cc1cc(C)cc(C(=O)c2c(C(C)C)c(=O)[nH]c(=O)n2Cc2ccc(N)cc2)c1 ... 173 to 175 °C
O=C(CO)Cc1ccc2ccccc2c1 ... 109 to 110 °C
Cc1cc(C)c(-c2cn(C)c3nc(N)[nH]c(=O)c23)c(C)c1 ... 184 to 186 °C

Which melting point reading was recorded for the compound `O=C(Nc1ccc(C(=O)N2Cc3ccccc3Cc3ccccc32)cc1)c1cc(Cl)cc(Cl)c1` ? 257 to 259 °C

Try the compound `CN(C)CC1(c2cccc(C(F)(F)F)c2)CCN(C(=O)CN2CCN(c3ccccc3)CC2)CC1` 123 to 124 °C

Try the compound `CCCC(=O)Nc1n[nH]c2cc(Cl)c(-c3ccncc3)cc12` 260 °C

----------
The compounds listed here are annotated with their melting point.

Below, 8 compounds whose answers are already recorded.
COc1cc2c(cc1-c1cccc(F)n1)-c1c(-c3cncs3)c3c(n1CC2)C(=O)N(C(C)(C)C)CCOC3 ... 232 to 234 °C
CN1CCN(c2ccc(/C=C/c3cc(/C=C/c4ccc5cc[nH]c5c4)[nH]n3)c(Br)c2)CC1 ... 120 to 124 °C
CC(C)(C)NC(=O)c1ccc2ccccc2c1 ... 155 to 159 °C
COc1ccc2c(c1)CCC1C2CCC2(C)C1CCC2N(C=O)CCC(C)C (centres undefined) ... 106 to 107 °C
CC(=O)Nc1nc(C)c(S(=O)(=O)NCCN(C)C)s1 ... 143 °C
C[C@@H]1Cc2ccsc2[C@H](c2ccccc2)N1CCNS(=O)(=O)c1ccc(NS(C)(=O)=O)cc1 (relative stereo) ... 155 to 158 °C
Cc1ccc2sc(-c3ccccn3)nc(=O)c2c1 ... 220 to 221 °C
N#Cc1ccc(CN(c2ccc(O)cc2)n2ccnc2)cc1 ... 150 °C

Turning now to a further record.
Please give the measured melting point for this compound: CC(C(=O)O)c1ccc(OCCNC(=O)C2Cc3ccccc3N2S(=O)(=O)c2ccc(-c3cccc(C(F)(F)F)c3)cc2)cc1 (centres undefined) 92 to 96 °C

----------
Listing: melting point of selected compounds

Some entries whose results are on file:
Cc1ccccc1-c1cc(Cl)cc2c1NC(CN)CO2 (stereo not given) ... 86 °C
CCn1ncc2c3onc(-c4ccc(C)cc4)c3cnc21 ... 173 to 175 °C
COC(=O)CCc1nc(CCc2ccc(C(=O)OC)cc2)ccc1O ... 137 to 139 °C

What value of melting point has been recorded for this entry: `CS(=O)(=O)c1ccc(-c2[nH]c(S)nc2-c2ccc(F)cc2)cc1` 158 to 161 °C

Next record, please: `CCCCCC(=O)C=CI` 35 to 37 °C

Proceed to `CCc1c(Cl)cnn(C(C)(C)C)c1=O` 61.5 to 62.5 °C

Now consider `O=c1[nH]c(NCCCN(Cc2ccccc2)c2ccccn2)ncc1Cc1ccncc1` . 87 to 89 °C

Record: `Fc1cc(-n2cnnn2)ccc1-c1ccc2oc(C3CCNCC3)nc2c1` 148 to 151 °C

Same again, this time with `CCCCOC(=O)COc1ccc(C(=O)Nc2ccccc2Sc2cccc(C)c2-c2nnn[nH]2)cc1` 150 to 151 °C

Now try `CS(=O)(=O)c1ccc([C@@H](CC2CCC(=O)CC2)C(=O)O)cc1Cl` . 129 to 131 °C

----------
A collection of molecules and their measured melting point

CN1C(=O)CC[C@]2(C)c3ccc(-c4ccc(Cl)cc4)cc3CC[C@@H]12 ... 192 °C

Now consider a different molecule.
Form field: reported melting point of `CCOC(=O)c1sc2ncccc2c1Br` 100 to 102 °C

----------
Listing of entries alongside the reported melting point.

CC(CCC(=O)N(C)C)C1CC=C2C3=C(CCC21C)C1(C)CCC(O)C(C)(C)C1CC3 (stereo not given) ... 192 to 195 °C
CSC1C(=O)Nc2ccc(Oc3ccccc3)cc21 (stereo not given) ... 124 to 128 °C
CN(C)CCC1CCc2cc(OCc3ccc(O)cc3)ccc2C1 (stereo not given) ... 132 to 135 °C
CC(=O)N1CCCC(=O)c2cc(Cl)c(Cl)cc2CCC1=O ... 163 to 165 °C

Continue with the next molecule.
Need melting point of `O=C(CCCCl)c1ccc2c(c1)Cc1cc(C(=O)CCCCl)ccc1-2` , thanks. 172 to 175 °C

----------
measurementName: melting point

# annotated cases, reported melting point shown
CCON=C(CC)C1=C(O)CC(c2ccc3c(c2)NC(=O)C(C)O3)CC1=O (stereo not given) ... 144 to 146 °C
CC(=O)N1CCC2(c3ccccc3)OC2C1 (stereo not given) ... 68 to 71 °C
Fc1cc(Cl)c2nc(Cl)sc2c1-n1nc2c(c1Cl)CCCC2 ... 161 to 163 °C
CS(=O)(=O)c1ccc(-c2ccc(I)n2-c2ccc(F)cc2)cc1 ... 174 to 176 °C

Shifting focus to the molecule that follows.
Given the entry O=C1NC(=O)C(Cc2ccc(O)c(C(=O)NCc3ccc(C(F)(F)F)cc3)c2)S1 (stereo not given) , report its measured melting point. 146 to 148 °C

----------
measurementName: melting point

Cc1c(C)c2c(c(C)c1O)CC[C@@](C)(CCCl)O2 ... 111 °C

// lookup melting point for `CCNc1cc(NS(=O)(=O)c2ccc(N)cc2)nc(NC(C)C)n1` 266 to 267 °C

Try the molecule `CCc1oc(C(O)(C(F)(F)F)C(F)(F)F)nc1-c1ccc(S(C)(=O)=O)cc1` 92 to 93 °C

Repeat with `CCOC(=O)CCc1cc(C(=O)c2cccc(C(=O)OCC)c2)ccc1/C=C\CCCCO` 48 to 50 °C

----------
Let's look at some compounds and their measured melting point.

Some solved entries appear below for comparison.
Brc1ccc(C2(c3ccc(Br)cc3)OCCO2)cc1 ... 103 to 104 °C
CN1CN(c2ccccc2)C2(CCN(CCCC(=O)c3ccc(F)cc3I)CC2)C1=O ... 115 to 118 °C
COC(=O)c1cc(C(=O)NN2CCOCC2)c2cc(Cc3ccc(F)cc3)cnc2c1O ... > 250 °C
COCCN1CCN(CCc2ccc(Nc3ncc4c(n3)-c3ccccc3C(c3ccccc3C(F)(F)F)C4)cc2)CC1 (stereo unspecified) ... 139 to 140 °C
COc1ccc(C#N)c2c1OC1(CCCC1)C2 ... 74 to 76 °C
Cc1ccc(CN2CCN(C3=NC4(C=CC(=O)C=C4)C(c4ccc(O)cc4)=C3)CC2)cc1 ... 140 °C

Fill blank: measured melting point of the compound `CC(=O)NC(=Cc1ccc(C#N)cc1)C(=O)N[C@H](C(=O)O)C1CCCCC1` is ____. 196 to 198 °C

Another compound to look at: COC(=O)CC[C@H](NC(=O)c1ccc(CCC2CNc3nc(NC(=O)C(C)(C)C)nc(O)c3C2)s1)C(=O)OC (stereo partly specified) 152 to 160 °C

For `CC1(C)CC(=O)c2c(NC3CC3)sc(-c3cc[nH]n3)c2C1` then? 232 to 235 °C

Entry to check: `Cc1ccc(C2=NNC(=O)CC2)c(O)c1` 210 to 211 °C

Another: `c1ccc2sc(SSN3CCCCCC3)nc2c1` 65 to 67 °C

Param item: `O=C(Sc1ccccn1)c1ccccc1` 48 to 50 °C

Continue with `CN1CCN(CCCNC(=S)NC2CCCCC2)CC1` 109 to 111 °C

Consider next the compound CC1CCCCC1C(=O)Nc1ccc(-c2cnc(-c3ccc(NC(=O)c4ccccn4)cc3)[nH]2)cc1 (stereo unspecified) in the same way. 227 to 229 °C

Further, for `O=S1(=O)N=CN(CCF)c2cc(Cl)c(Cl)cc21` ? 233 to 234 °C

# repeat for `CCCCN(C)Cc1c(-c2ccccc2)sc(N)c1C(=O)c1ccc(Cl)cc1` 84 to 88 °C

Data provenance is a melting point compilation (Tetko et al.; mined from patent text by program, amines drawn as free bases though some values may be those of a salt).
